Source: patent US7135466B2

- assayed_system: c-kit (Homo sapiens, UniProt P10721)
- Construct: MO7e (human megakaryocytic leukemia cell line) which had been arrested for 20 hr; endogenous in cells; host or cells: MO7e human megakaryocytic leukemia cell line
- Sequence (P10721 26-976): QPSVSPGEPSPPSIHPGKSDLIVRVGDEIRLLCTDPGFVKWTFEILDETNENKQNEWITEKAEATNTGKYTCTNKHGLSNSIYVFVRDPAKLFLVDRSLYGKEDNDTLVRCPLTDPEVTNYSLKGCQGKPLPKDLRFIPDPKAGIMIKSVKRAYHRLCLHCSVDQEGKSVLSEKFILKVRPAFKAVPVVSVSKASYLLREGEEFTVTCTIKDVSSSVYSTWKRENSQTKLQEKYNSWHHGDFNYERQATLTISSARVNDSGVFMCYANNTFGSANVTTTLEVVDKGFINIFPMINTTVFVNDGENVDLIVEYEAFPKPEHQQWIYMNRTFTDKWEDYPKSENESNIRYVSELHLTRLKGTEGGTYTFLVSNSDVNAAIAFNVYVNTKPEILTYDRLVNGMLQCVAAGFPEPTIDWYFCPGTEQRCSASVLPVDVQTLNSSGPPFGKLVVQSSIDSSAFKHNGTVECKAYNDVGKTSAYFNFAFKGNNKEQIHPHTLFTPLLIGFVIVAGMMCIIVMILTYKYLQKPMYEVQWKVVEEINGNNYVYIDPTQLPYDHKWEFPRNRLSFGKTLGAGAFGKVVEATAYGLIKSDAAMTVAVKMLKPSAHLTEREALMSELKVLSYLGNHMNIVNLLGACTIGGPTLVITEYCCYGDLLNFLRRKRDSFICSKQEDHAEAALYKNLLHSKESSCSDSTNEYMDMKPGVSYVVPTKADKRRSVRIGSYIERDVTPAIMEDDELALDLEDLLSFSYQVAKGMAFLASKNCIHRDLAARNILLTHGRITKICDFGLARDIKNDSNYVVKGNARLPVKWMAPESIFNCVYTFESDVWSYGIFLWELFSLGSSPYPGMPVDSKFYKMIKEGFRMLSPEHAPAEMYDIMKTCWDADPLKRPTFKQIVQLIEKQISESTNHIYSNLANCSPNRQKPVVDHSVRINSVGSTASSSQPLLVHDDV
- assay_text: Inhibitory activity against c-kit autophosphorylation (MO7e cells, h-SCF)
- Type: cell-based
- details: Mo7e, figure in parentheses in −( ); at 1000 nM
I would appreciate it if you labelled entries T when inhibition at 1 µM is 8% or higher, otherwise F.

[ask] Decide: inhibition at 1 µM of COc1cc2nccc(Oc3cc(C)c(NC(=O)OC(C)c4cccc(C(F)(F)F)c4)cc3C)c2cc1OC (centres unmarked) [Example 89] >= 8%?
[reply] T

[ask] Decide: inhibition at 1 µM of CCC(OC(=O)Nc1ccc(Oc2ncnc3cc(OC)c(OC)cc23)cc1Cl)c1ccccc1 (centres unmarked) [Example 346] >= 8%?
[reply] T

[ask] Decide: inhibition at 1 µM of CCCCCCCCCCCCCC(=O)NC(=S)Nc1ccc(Oc2ccnc3cc(OC)c(OC)cc23)cc1F [Example 1076] >= 8%?
[reply] F

[ask] Decide: inhibition at 1 µM of COc1cc2nccc(Oc3ccc(NC(=S)NC(=O)c4ccc(C)cc4)c(C)c3)c2cc1OC [Example 1096] >= 8%?
[reply] F

[ask] Decide: inhibition at 1 µM of COc1cc2nccc(Oc3ccc(NC(=S)NC(=O)c4ccc(Cl)cc4Cl)cc3F)c2cc1OC [Example 1014] >= 8%?
[reply] T

[ask] Decide: inhibition at 1 µM of COc1cc2nccc(Oc3ccc(NC(=S)NC(=O)c4cccc(Cl)c4)c(C)c3)c2cc1OC [Example 1100] >= 8%?
[reply] T

[ask] Decide: inhibition at 1 µM of COc1cc2ncnc(Oc3ccc(NC(=S)NC(=O)C4CC4c4ccccc4)cc3)c2cc1OC (centres unmarked) [Example 1060] >= 8%?
[reply] T

----------
- assayed_system: c-kit (Homo sapiens, UniProt P10721)
- Construct: MO7e (human megakaryocytic leukemia cell line) which had been arrested for 20 hr; endogenous in cells; host or cells: MO7e human megakaryocytic leukemia cell line
- assay_text: Inhibitory activity against c-kit autophosphorylation (MO7e cells, h-SCF)
- Type: cell-based
- details: MO7e cells, h-SCF 50 ng/ml; read-out: c-kit IC50
So I've got a bunch of compounds here, and I need their pIC50 values.
Here pIC50 is given on a logarithmic scale as minus log10 of the concentration in mol/L.

Quick note, pIC50 for COc1cc2nccc(Oc3cc(C)c(NC(=O)OC(C)c4cccc(F)c4)cc3C)c2cc1OC (centres unmarked) landed at 6.40

Quick note, pIC50 for COc1cc2ncnc(Oc3ccc(NC(=O)OC4CCCC4)c(Cl)c3)c2cc1OC landed at 6.68

Quick note, pIC50 for COc1cc2ncnc(Oc3ccc(NC(=O)OCC4CCCC4)c(Cl)c3)c2cc1OC landed at 6.34

Quick note, pIC50 for C=CCCCOC(=O)Nc1ccc(Oc2ccnc3cc(OC)c(OC)cc23)cc1 landed at 7.47

Quick note, pIC50 for COc1cc2nccc(Oc3ccc(NC(=O)OC(C)c4cccc(N(C)C)c4)c(C)c3C)c2cc1OC (centres unmarked) landed at 6.48

Quick note, pIC50 for COc1cc2nccc(Oc3ccc(NC(=O)OC(C)c4cccc(Br)c4)c(C)c3C)c2cc1OC (centres unmarked) landed at 6.13

Quick note, pIC50 for COc1cc2nccc(Oc3cc(C)c(NC(=O)Oc4c(OC)cccc4OC)cc3C)c2cc1OC landed at 6.57

Quick note, pIC50 for COc1cccc(C(C)OC(=O)Nc2ccc(Oc3ccnc4cc(OC)c(OC)cc34)cc2)c1 (centres unmarked) landed at 6.56
